// data source = ChEMBL document CHEMBL5058577

system: Fibroblast; test: Multiplex assay against human fibroblast; type: toxicity, cell-based; details: 24 h, 10 µM, compound concentration 10 uM, replicate 2
Non-standard residues stand in square brackets, D forms with d. Residues, ends and D or L forms follow the SMILES beside them.
Give measured Population Mitochondria Different-Phenotype (%) for each item. Keep answers brief.
A bare number is not enough; add the unit after it.

Case COCCn1c(C)c(C)s/c1=N\C(=O)C1C(C)(C)C1(C)C , Fibroblast, Population Mitochondria Different-Phenotype (%) recorded as 19%

Case C=CCN1C[C@H](C(=O)N(CCCN(C)C)C(=O)NCC)C[C@@H]2c3cccc4[nH]cc(c34)C[C@H]21 [CABERGOLINE] , Fibroblast, Population Mitochondria Different-Phenotype (%) recorded as 5%

Case O=c1ccc2ccc(OCCCCN3CCN(c4cccc5sccc45)CC3)cc2[nH]1 [BREXPIPRAZOLE] , Fibroblast, Population Mitochondria Different-Phenotype (%) recorded as 34%

Case Nc1nc(-c2ccco2)c2cnn(Cc3ccccc3F)c2n1 , Fibroblast, Population Mitochondria Different-Phenotype (%) recorded as 5%

Case Nc1nc(CC(=O)Nc2ccc(CCNC[C@H](O)c3ccccc3)cc2)cs1 [MIRABEGRON] , Fibroblast, Population Mitochondria Different-Phenotype (%) recorded as 6%

Case CN1CCN(c2ccc(Nc3c4ccccc4nc4ccccc34)cc2)CC1.Cl.Cl.O , Fibroblast, Population Mitochondria Different-Phenotype (%) recorded as 34%

Case CC(C)C[C@@H]1NC(=O)[C@@H](C(C)C)NC(=O)[C@@H]2CCCN2C(=O)[C@@H](CC(=O)O)NC(=O)[C@@H](Cc2c[nH]c3ccccc23)NC1=O [BQ-123] (cyclo(L[dW][dD]P[dV])) , Fibroblast, Population Mitochondria Different-Phenotype (%) recorded as 3%

Case CCCCC[C@H](O)/C=C/[C@H]1[C@H](O)CC(=O)[C@@H]1CCCCCCC(=O)O [ALPROSTADIL] , Fibroblast, Population Mitochondria Different-Phenotype (%) recorded as 3%

Case COc1ccc2c(c1OCc1ccccc1)C[C@@H](C(=O)O)N(C(=O)C(c1ccccc1)c1ccccc1)C2 [OLODANRIGAN] , Fibroblast, Population Mitochondria Different-Phenotype (%) recorded as 4%

Case C[C@H](NC(=O)CNC(=O)c1cccc(Cl)c1)c1ccccc1 , Fibroblast, Population Mitochondria Different-Phenotype (%) recorded as 7%

Case CC(F)(F)CN1CCOc2c(nn(-c3ccccc3Cl)c2-c2ccc(Cl)cc2)C1=O , Fibroblast, Population Mitochondria Different-Phenotype (%) recorded as 10%

Case Cn1cc(C(=O)OCC2CCN(CCNS(C)(=O)=O)CC2)c2ccccc21 , Fibroblast, Population Mitochondria Different-Phenotype (%) recorded as 5%

Case N[C@](CC1c2ccccc2Oc2ccccc21)(C(=O)O)[C@H]1C[C@@H]1C(=O)O , Fibroblast, Population Mitochondria Different-Phenotype (%) recorded as 4%

Case CSc1nc(NC2CCCC2)c([N+](=O)[O-])c(NC2CCCC2)n1 [GS-39783] , Fibroblast, Population Mitochondria Different-Phenotype (%) recorded as 10%

Case COc1cc(C(=O)N2CC[C@@H](O)[C@@H](N)C2)cc2nc(-c3cc4ccccc4n3CC3CC3)n(C)c12.Cl , Fibroblast, Population Mitochondria Different-Phenotype (%) recorded as 41%

Case Cc1sc2c(c1C)C(c1ccc(Cl)cc1)=N[C@H](CC(=O)OC(C)(C)C)c1nnc(C)n1-2 , Fibroblast, Population Mitochondria Different-Phenotype (%) recorded as 26%

Case CN(C)C/C=C/C(=O)Nc1ccc(C(=O)N2CCCC(Nc3ncc(Cl)c(-c4c[nH]c5ccccc45)n3)C2)cc1 (configuration not stated) , Fibroblast, Population Mitochondria Different-Phenotype (%) recorded as 35%
